# experimental_protocol: Drug metabolism of the compound assessed as reduction rate assessed per unit of enzyme in anoxic conditions in presence of bovine milk xanthine oxidase
# Format: physicochemical
# condition_description: cattle
Mark 0 for Drug metabolism values under 40 nmol/min/U, and 1 for everything at or above.

Known results for molecules:
molecule: O=[N+]([O-])c1ncccc1NCc1cn(CCF)nn1
category_label: 1
//
molecule: O=[N+]([O-])c1nccn1CC(O)CF (stereo not given)
category_label: 0
//
molecule: O=[N+]([O-])c1nccn1Cc1cn(CCF)nn1
category_label: 0
//
molecule: O=[N+]([O-])c1ccnn1Cc1cn(CCF)nn1
category_label: 0

INPUT: Dear colleague, could you confirm whether `O=[N+]([O-])c1cnc(NCc2cn(CCF)nn2)s1` has Drug metabolism at or above 40 nmol/min/U?
OUTPUT: 1
